# Test System: UniProt:P21917
# Assay Info: Binding affinity to dopamine receptor, radiolabeled ligand displacement (D4)
# Set-up: dose or concentration left out as unconfirmed
Consider the following compounds and their measured Affinity to Dopamine Receptors (% Inhibition) D4 readings.
State just the number; it will be interpreted in %.

Prompt: Give Affinity to Dopamine Receptors (% Inhibition) D4 for the following compound: CCOc1ccccc1N1CCN(CCCC2CC(c3ccc(OC)c(OC)c3)=NO2)CC1 (racemic) [Compound No. 29]
Response: 57.4

Prompt: Indicate the recorded Affinity to Dopamine Receptors (% Inhibition) D4 value for this compound: COc1ccccc1N1CCN(CCCCC2CC(c3ccccc3)=NO2)CC1 (racemic) [Compound No. 34]
Response: 100.1

Prompt: Respond only with Affinity to Dopamine Receptors (% Inhibition) D4 recorded for CCOc1ccccc1N1CCN(CCCC2CC(c3cccs3)=NO2)CC1 (racemic) [Compound No. 30]
Response: 102.3

Prompt: Complete the entry with Affinity to Dopamine Receptors (% Inhibition) D4 for COc1ccccc1N1CCN(CCCC2CC(c3cccs3)=NO2)CC1 (stereo not drawn) [Compound No. 10]
Response: 103.6

Prompt: Give Affinity to Dopamine Receptors (% Inhibition) D4 for COc1ccc(C2=NOC(CCCN3CCN(c4ccccc4OC)CC3)C2)cc1OC (stereo not drawn) [Compound No. 9]
Response: 104.4

Prompt: Indicate the recorded Affinity to Dopamine Receptors (% Inhibition) D4 value for this compound: COc1ccc(C2=NOC(CCCN3CCN(c4ccccc4)CC3)C2)cc1OC (stereo not drawn) [Compound No. 7]
Response: 103.9

* * *

# Test System: cloned human dopamine receptors D1 (Homo sapiens)
# Sequence (P21728 whole entry): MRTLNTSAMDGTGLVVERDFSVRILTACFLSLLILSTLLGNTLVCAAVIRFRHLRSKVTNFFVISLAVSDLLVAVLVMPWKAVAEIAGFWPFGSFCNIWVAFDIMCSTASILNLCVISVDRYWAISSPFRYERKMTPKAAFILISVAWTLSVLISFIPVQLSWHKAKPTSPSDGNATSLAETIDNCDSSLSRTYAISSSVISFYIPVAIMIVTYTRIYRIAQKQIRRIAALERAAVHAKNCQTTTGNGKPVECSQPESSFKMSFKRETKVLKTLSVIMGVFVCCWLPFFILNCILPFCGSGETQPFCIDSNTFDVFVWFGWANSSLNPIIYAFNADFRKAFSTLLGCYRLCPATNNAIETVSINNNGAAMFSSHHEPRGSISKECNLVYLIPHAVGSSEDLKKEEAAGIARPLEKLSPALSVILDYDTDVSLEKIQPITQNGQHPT
# Assay Info: Binding affinity to dopamine receptor, radiolabeled ligand displacement (D1)
# Set-up: dose or concentration left out as unconfirmed
Quick rule for you: Affinity to Dopamine Receptors (% Inhibition) D1 at 20% or higher means yes (1), lower means no (0).

Study these solved cases before continuing.
COc1ccc(C2=NOC(CCCN3CCN(c4ccccc4)CC3)C2)cc1OC (stereo not drawn) :: no (0)
CCOc1ccccc1N1CCN(CCCC2CC(c3cccs3)=NO2)CC1 (racemic) :: yes (1)
CCOc1ccccc1N1CCN(CCCC2CC(c3ccc(OC)c(OC)c3)=NO2)CC1 (racemic) :: yes (1)

Prompt: Form field: Affinity to Dopamine Receptors (% Inhibition) D1 at least 20%? Entry: COc1ccccc1N1CCN(CCCCC2CC(c3ccccc3)=NO2)CC1 (racemic)
Response: yes (1)

* * *

# Test System: cloned human dopamine receptors D3 (Homo sapiens, UniProt P35462)
# Sequence (P35462 whole entry): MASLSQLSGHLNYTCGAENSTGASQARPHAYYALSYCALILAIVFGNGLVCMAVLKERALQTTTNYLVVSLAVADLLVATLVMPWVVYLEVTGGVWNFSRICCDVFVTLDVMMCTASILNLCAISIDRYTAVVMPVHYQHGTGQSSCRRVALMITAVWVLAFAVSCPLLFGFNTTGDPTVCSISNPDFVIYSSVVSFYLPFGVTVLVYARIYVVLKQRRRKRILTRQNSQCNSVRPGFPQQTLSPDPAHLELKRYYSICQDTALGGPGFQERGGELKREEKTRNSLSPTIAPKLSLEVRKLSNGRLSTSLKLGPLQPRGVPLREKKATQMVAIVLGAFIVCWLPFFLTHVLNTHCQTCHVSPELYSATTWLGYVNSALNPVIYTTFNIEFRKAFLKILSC
# Assay Info: Binding affinity to dopamine receptor, radiolabeled ligand displacement (D3)
# Design: dose or concentration left out as unconfirmed
Quantity Measured: Affinity to Dopamine Receptors (% Inhibition) D3 (%)
Write the number in % without appending the unit.

# annotated cases, reported Affinity to Dopamine Receptors (% Inhibition) D3 shown
CCOc1ccccc1N1CCN(CCCC2CC(c3cccs3)=NO2)CC1 (racemic) [Compound No. 30] :: 101.2
COc1ccccc1N1CCN(CCCC2CC(c3cccs3)=NO2)CC1 (centres unmarked) [Compound No. 10] :: 99.9
COc1ccccc1N1CCN(CCCCC2CC(c3ccccc3)=NO2)CC1 (racemic) [Compound No. 34] :: 83.8
COc1ccc(C2=NOC(CCCN3CCN(c4ccccc4OC)CC3)C2)cc1OC (centres unmarked) [Compound No. 9] :: 101.2

Now for a further molecule.
Prompt: Output measured Affinity to Dopamine Receptors (% Inhibition) D3 for this item: COc1ccc(C2=NOC(CCCN3CCN(c4ccccc4)CC3)C2)cc1OC (centres unmarked) [Compound No. 7]
Response: 102.5

* * *

Entries below carry reported pIC50 on cloned human dopamine receptors D3 (Homo sapiens).
// scale note: pIC50 = -log10(conc_M); give the bare number

CCOc1ccccc1N1CCN(CCCC2CC(c3cccs3)=NO2)CC1 (racemic) :: 8.40
COc1ccc(C2=NOC(CCCN3CCN(c4ccccc4OC)CC3)C2)cc1OC (stereo not shown) :: 8.30
COc1ccccc1N1CCN(CCCC2CC(c3cccs3)=NO2)CC1 (stereo not shown) :: 7.72

Next:
Prompt: Output reported pIC50 of the compound COc1ccc(C2=NOC(CCCN3CCN(c4ccccc4)CC3)C2)cc1OC (stereo not shown) on cloned human dopamine receptors D3 (Homo sapiens).
Response: 7.68

* * *

# Test System: cloned human dopamine receptors D4 (Homo sapiens, UniProt P21917)
# Sequence (P21917 1-419): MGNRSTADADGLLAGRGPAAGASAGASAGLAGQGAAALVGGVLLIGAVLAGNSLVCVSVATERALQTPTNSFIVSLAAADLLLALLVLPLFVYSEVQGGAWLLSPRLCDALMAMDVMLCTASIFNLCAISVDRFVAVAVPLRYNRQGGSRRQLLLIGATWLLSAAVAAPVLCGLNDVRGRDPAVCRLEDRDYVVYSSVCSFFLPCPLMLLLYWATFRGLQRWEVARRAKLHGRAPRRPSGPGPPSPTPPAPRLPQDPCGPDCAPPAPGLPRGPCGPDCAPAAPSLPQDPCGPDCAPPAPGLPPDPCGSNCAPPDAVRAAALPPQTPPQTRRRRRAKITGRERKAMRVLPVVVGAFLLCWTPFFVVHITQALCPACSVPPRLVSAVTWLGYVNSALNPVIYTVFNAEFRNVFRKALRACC
Quantity Measured: IC50 (nM)
Give the value, in units of nM, as a plain number.

Some solved cases for reference:
COc1ccccc1N1CCN(CCCC2CC(c3cccs3)=NO2)CC1 (centres unmarked) :: 34
COc1ccc(C2=NOC(CCCN3CCN(c4ccccc4OC)CC3)C2)cc1OC (centres unmarked) :: 23

Prompt: Under cloned human dopamine receptors D4 (Homo sapiens, UniProt P21917): report IC50 of COc1ccc(C2=NOC(CCCN3CCN(c4ccccc4)CC3)C2)cc1OC (centres unmarked) .
Response: 71

Prompt: GET IC50 where system = cloned human dopamine receptors D4 (Homo sapiens, UniProt P21917) and item = CCOc1ccccc1N1CCN(CCCC2CC(c3ccc(OC)c(OC)c3)=NO2)CC1 (racemic)
Response: 108

Prompt: Specify IC50 for CCOc1ccccc1N1CCN(CCCC2CC(c3cccs3)=NO2)CC1 (racemic) , system cloned human dopamine receptors D4 (Homo sapiens, UniProt P21917).
Response: 11

* * *

// reported log10 IC50 per item
# Test System: cloned human dopamine receptors D2 (Homo sapiens, UniProt P14416)
# Sequence (P14416 whole entry): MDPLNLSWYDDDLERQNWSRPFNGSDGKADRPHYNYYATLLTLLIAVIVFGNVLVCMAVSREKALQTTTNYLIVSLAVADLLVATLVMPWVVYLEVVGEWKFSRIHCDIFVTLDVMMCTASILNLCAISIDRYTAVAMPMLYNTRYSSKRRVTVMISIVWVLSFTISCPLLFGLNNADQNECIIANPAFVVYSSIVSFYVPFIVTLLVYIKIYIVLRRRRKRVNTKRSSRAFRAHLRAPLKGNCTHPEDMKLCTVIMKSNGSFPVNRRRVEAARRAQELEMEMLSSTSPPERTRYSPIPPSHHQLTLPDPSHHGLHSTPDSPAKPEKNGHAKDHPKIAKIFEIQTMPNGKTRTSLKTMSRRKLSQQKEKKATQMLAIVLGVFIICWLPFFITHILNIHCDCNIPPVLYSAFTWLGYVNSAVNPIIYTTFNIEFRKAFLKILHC
# Assay Info: Binding affinity to dopamine receptor, radiolabeled ligand displacement (D2)
Log scale reminder: IC50 in nM, then log10 taken.

Prompt: Report value: log10 IC50, system: cloned human dopamine receptors D2 (Homo sapiens, UniProt P14416), molecule: COc1ccc(C2=NOC(CCCN3CCN(c4ccccc4OC)CC3)C2)cc1OC (centres unmarked)
Response: 3.16

Prompt: Give measured log10 IC50 for CCOc1ccccc1N1CCN(CCCC2CC(c3ccc(OC)c(OC)c3)=NO2)CC1 (racemic) (cloned human dopamine receptors D2 (Homo sapiens, UniProt P14416)).
Response: 2.04

Prompt: Specify the recorded log10 IC50 for CCOc1ccccc1N1CCN(CCCC2CC(c3cccs3)=NO2)CC1 (racemic) , system: cloned human dopamine receptors D2 (Homo sapiens, UniProt P14416).
Response: 2.67

Prompt: Output reported log10 IC50 of the molecule COc1ccc(C2=NOC(CCCN3CCN(c4ccccc4)CC3)C2)cc1OC (centres unmarked) on cloned human dopamine receptors D2 (Homo sapiens, UniProt P14416).
Response: 3.97

Prompt: For cloned human dopamine receptors D2 (Homo sapiens, UniProt P14416), give log10 IC50 of the listed molecule: COc1ccccc1N1CCN(CCCC2CC(c3cccs3)=NO2)CC1 (centres unmarked)
Response: 3.29
